# Organism: Oryctolagus cuniculus
# ASSAY_SUMMARY: Binding affinity to Oryctolagus cuniculus (rabbit) vas deferens M1 receptor after 1 hr
YES means recorded pKb is 7 or above; NO means it is below 7.

COMPOUND	ASSIGNED_LABEL
C[C@@H]1OC(c2ccccc2)(c2ccccc2)O[C@@H]1CN(C)C (relative stereo)	NO

Moving on to another compound below.
query: Exam item: decide whether the reported pKb for CN(C)C[C@@H]1CO[C@H](C(c2ccccc2)c2ccccc2)O1 (relative stereo) is at least 7.
result: YES

----------
Listed next: entries and their corresponding pKb.
# TARGET_UNDER_TEST: Muscarinic acetylcholine receptor M3 (Cavia porcellus)
# ASSAY_SUMMARY: Binding affinity to Cavia porcellus (guinea pig) ileum M3 receptor after 30 min
# Format: tissue-based

query: Fill in the blank: the reported pKb of CN(C)C[C@@H]1CO[C@H](C(c2ccccc2)c2ccccc2)O1 (relative stereo) is ____.
result: 6.07

query: What do we get for C[C@H]1OC(c2ccccc2)(c2ccccc2)O[C@@H]1CN(C)C (relative stereo) ?
result: 6.71

query: Repeat for the following compound: CN(C)CC1COC(c2ccccc2)(c2ccccc2)O1 (stereo not given)
result: 6.72

query: C[C@@H]1OC(c2ccccc2)(c2ccccc2)O[C@@H]1CN(C)C (relative stereo) , same question.
result: 6.44

query: Now try `CN(C)C[C@@H]1CO[C@@H](C(c2ccccc2)c2ccccc2)O1` .
result: 6.67

----------
# TARGET_UNDER_TEST: Muscarinic receptor 2 (Cavia porcellus) (UniProt Q8VH27)
# Sequence (Q8VH27 as listed by the source): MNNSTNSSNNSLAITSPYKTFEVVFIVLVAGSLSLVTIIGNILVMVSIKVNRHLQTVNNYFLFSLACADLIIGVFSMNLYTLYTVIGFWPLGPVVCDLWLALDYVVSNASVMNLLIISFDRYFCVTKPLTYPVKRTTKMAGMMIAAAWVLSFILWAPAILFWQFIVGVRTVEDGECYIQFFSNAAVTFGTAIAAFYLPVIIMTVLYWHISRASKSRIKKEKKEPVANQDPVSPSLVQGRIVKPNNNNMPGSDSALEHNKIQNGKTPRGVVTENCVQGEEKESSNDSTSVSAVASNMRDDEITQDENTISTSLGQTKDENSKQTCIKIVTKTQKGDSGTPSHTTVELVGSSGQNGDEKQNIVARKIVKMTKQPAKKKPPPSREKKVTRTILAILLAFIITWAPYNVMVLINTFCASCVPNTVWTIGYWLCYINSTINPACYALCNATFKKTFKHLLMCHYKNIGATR
# ASSAY_SUMMARY: Binding affinity to Cavia porcellus (guinea pig) left atria M2 receptor after 2 hr
pKb for assorted compounds
Enter a number only.

Below are worked cases with known answers.
COMPOUND	MEASURE_NAME	ASSAY_VALUE
C[C@@H]1OC(c2ccccc2)(c2ccccc2)O[C@@H]1CN(C)C (relative stereo)	pKb	6.48
CN(C)C[C@@H]1CO[C@H](C(c2ccccc2)c2ccccc2)O1 (relative stereo)	pKb	6.62
C[C@H]1OC(c2ccccc2)(c2ccccc2)O[C@@H]1CN(C)C (relative stereo)	pKb	6.71
CN(C)CC1COC(c2ccccc2)(c2ccccc2)O1 (stereo not given)	pKb	7.11

Consider the additional compound presented here.
query: Value lookup for pKb; key = `CN(C)C[C@@H]1CO[C@@H](C(c2ccccc2)c2ccccc2)O1`
result: 6.56

----------
# ASSAY_SUMMARY: Selectivity ratio of pKb for rabbit vas deferens M1 receptor to pKb for guinea pig ileum M3 receptor
# Type: tissue-based
Listing of recorded Ratio pKb by entry.
// response body must contain only the number

MOLECULE	Ratio pKb
C[C@H]1OC(c2ccccc2)(c2ccccc2)O[C@@H]1CN(C)C (relative stereo)	1

query: # get_value(readout='Ratio pKb', item= `CN(C)C[C@@H]1CO[C@@H](C(c2ccccc2)c2ccccc2)O1` )
result: 2

query: Now try C[C@@H]1OC(c2ccccc2)(c2ccccc2)O[C@@H]1CN(C)C (relative stereo) .
result: 0.8

query: Then what about the molecule CN(C)CC1COC(c2ccccc2)(c2ccccc2)O1 (stereo not given) ?
result: 3

query: Note, next up: CN(C)C[C@@H]1CO[C@H](C(c2ccccc2)c2ccccc2)O1 (relative stereo)
result: 17

----------
# Organism: Oryctolagus cuniculus
# ASSAY_SUMMARY: Binding affinity to Oryctolagus cuniculus (rabbit) vas deferens M1 receptor after 1 hr
MEASURE_NAME: pKb
Please reply with the value in numeric form only.

query: Could you tell me which pKb is on file for C[C@H]1OC(c2ccccc2)(c2ccccc2)O[C@@H]1CN(C)C (relative stereo) ?
result: 6.87

query: Ok, now CN(C)CC1COC(c2ccccc2)(c2ccccc2)O1 (stereo not drawn)
result: 7.15

query: And the next one, `CN(C)C[C@@H]1CO[C@@H](C(c2ccccc2)c2ccccc2)O1` ?
result: 6.9
